# Assay System: PARD3_3, Q8TEW0
# Sequence (Q8TEW0 582-685): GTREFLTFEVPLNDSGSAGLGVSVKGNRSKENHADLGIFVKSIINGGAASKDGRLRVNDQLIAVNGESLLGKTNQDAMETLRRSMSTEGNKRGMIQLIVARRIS
# Experimental Details: holdup assay
# Design: key: below the threshold = too weak to quantify, mostly under pKd 3.1 to 4
# Measurement Setup: plain residues with an end cap or a label only (N-terminal biotin on a linker: ado-ado)
Measure: pKd

HLRARKSEWV [GJD4, Q96KN9]; below the threshold
SAAKVLTSMC [GHRHR, Q02643]; below the threshold
SSALYGESDL [ACTN2, P35609]; below the threshold
PRISRSQSEL [CCDC134, Q9H6E4]; below the threshold
YYKRPVQEWV [MMP24, Q9Y5R2]; 3.73
YNNCLEILRV [DCAF7, P61962]; 3.97
TPPAAKKSRI [BAZ1A, Q9NRL2]; below the threshold
TLPRKRMSSI [GPRC6A, Q5T6X5]; below the threshold
TSSMRGMDAV [RSRC2, Q7L4I2]; below the threshold
EVEEFPETSV [TRPV3, Q8NET8]; 3.85
EALLQMESVA [CAVIN3, Q969G5]; below the threshold
VYPNAKVELV [PDLIM4_iso2, P50479;P50479-1]; below the threshold
TKGPRGPTRV [SAPCD1, Q5SSQ6]; below the threshold
QSLNRMEYIV [JAG1, P78504]; 4.37
KKAPTNEFYA [SDC4, P31431]; below the threshold
GSGAVEMESV [AQP6, Q13520]; below the threshold
LGRSTPQSEV [DGKH, Q86XP1]; below the threshold
LPHGHSTTRV [NLGN4X, Q8N0W4]; below the threshold
YRLAQESGLV [ABCC6, O95255]; below the threshold
QSARLWETSI [ADAM22, Q9P0K1]; 3.74
PDGQCTVTEV [RNF146, Q9NTX7]; below the threshold
VRNLPESEEL [MYOZ3, Q8TDC0]; below the threshold
LRSPRTPSEV [OR10G3, Q8NGC4]; below the threshold
